system: Voltage-dependent L-type calcium channel subunit alpha-1C (DHP site) (Rattus norvegicus, UniProt P22002)
Sequence (P22002 whole entry): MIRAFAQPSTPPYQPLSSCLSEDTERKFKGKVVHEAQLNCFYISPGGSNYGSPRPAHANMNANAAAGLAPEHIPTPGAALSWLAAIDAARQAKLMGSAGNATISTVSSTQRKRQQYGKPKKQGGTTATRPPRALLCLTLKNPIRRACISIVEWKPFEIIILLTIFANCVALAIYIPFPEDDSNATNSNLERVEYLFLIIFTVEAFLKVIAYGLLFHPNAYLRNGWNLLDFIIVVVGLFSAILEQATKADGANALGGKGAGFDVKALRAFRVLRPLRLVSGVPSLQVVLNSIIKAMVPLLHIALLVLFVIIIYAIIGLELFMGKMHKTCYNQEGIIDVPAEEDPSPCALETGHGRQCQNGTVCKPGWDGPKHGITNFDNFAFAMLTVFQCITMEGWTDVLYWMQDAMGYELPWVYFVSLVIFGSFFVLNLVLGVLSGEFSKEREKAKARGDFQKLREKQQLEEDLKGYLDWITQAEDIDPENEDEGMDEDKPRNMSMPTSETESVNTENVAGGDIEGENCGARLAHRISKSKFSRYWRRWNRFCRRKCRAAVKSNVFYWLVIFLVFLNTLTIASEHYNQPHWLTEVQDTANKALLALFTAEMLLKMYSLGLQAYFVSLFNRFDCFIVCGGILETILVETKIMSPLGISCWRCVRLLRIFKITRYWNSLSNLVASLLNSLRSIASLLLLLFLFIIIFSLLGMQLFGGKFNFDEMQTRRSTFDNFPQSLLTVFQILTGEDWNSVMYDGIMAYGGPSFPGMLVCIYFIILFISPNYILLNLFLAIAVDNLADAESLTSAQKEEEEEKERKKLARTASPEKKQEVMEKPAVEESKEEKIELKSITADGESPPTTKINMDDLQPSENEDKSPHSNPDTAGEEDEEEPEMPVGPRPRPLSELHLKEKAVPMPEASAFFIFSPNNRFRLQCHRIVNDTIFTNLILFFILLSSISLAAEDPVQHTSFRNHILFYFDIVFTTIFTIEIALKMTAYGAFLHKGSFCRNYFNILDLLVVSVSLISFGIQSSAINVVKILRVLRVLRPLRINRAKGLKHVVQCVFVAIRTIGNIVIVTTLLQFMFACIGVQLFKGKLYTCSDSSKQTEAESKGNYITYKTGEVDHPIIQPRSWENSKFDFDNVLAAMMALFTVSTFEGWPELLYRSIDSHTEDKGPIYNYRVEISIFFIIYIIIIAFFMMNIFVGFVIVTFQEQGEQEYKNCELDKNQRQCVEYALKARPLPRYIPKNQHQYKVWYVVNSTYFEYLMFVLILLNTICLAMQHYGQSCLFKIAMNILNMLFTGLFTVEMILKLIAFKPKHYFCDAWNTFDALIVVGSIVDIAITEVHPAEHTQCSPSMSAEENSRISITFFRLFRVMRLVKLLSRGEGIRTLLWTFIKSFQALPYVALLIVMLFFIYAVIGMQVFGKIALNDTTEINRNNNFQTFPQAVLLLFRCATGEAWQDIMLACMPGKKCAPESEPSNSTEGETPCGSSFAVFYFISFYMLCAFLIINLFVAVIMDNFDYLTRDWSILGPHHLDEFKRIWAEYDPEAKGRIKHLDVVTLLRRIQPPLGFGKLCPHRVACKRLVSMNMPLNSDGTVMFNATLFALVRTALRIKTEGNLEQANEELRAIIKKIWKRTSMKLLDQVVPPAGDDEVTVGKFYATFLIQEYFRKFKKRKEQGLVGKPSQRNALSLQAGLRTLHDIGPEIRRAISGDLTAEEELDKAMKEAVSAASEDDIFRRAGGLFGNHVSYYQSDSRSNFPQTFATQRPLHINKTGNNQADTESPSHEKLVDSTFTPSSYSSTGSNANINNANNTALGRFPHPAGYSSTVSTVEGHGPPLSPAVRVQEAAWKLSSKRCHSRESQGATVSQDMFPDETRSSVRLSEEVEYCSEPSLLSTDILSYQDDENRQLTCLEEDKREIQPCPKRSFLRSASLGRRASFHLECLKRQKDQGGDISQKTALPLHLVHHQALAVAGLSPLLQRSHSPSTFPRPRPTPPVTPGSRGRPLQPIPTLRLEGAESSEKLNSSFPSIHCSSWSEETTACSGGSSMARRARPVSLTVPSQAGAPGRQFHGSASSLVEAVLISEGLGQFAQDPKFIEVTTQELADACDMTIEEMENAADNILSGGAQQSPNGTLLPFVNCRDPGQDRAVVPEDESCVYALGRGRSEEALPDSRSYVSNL
procedure-summary: CA+/DHPSI/RA Eurofins-Panlabs selectivity data (BI)
conditions-used: compound concentration 1 uM, read-out: % Ctrl
recorded-endpoint: activity at 1 µM

INPUT: What value of activity at 1 µM has been recorded for this entry: C[C@H](NC(=O)c1cnc2n1[C@](C)(Cc1ccc(C#N)cc1)C(=O)N2c1cc(Cl)c(F)c(Cl)c1)C(=O)NC1(c2ccccn2)CC1
OUTPUT: 81% (not active)

###

system: Voltage-dependent L-type calcium channel subunit alpha-1C (DHP site) (Rattus norvegicus, UniProt P22002)
procedure-summary: CA+/DHPSI/RA Eurofins-Panlabs selectivity data (BI)
conditions-used: compound concentration 10 uM, read-out: % Ctrl
recorded-endpoint: activity at 10 µM (%)
Provide only the numeric value, understood in %.

INPUT: What value of activity at 10 µM has been recorded for this entry: C[C@H](NC(=O)c1cnc2n1[C@](C)(Cc1ccc(C#N)cc1)C(=O)N2c1cc(Cl)c(F)c(Cl)c1)C(=O)NC1(c2ccccn2)CC1
OUTPUT: 28

###

system: Voltage-dependent L-type calcium channel subunit alpha-1C (DHP site) (Rattus norvegicus)
procedure-summary: CA+/DHPSI/RA Eurofins-Panlabs selectivity data (BI)
conditions-used: compound concentration 3 uM, read-out: % Ctrl
recorded-endpoint: activity at 3 µM

INPUT: What value of activity at 3 µM has been recorded for this entry: C[C@H](NC(=O)c1cnc2n1[C@](C)(Cc1ccc(C#N)cc1)C(=O)N2c1cc(Cl)c(F)c(Cl)c1)C(=O)NC1(c2ccccn2)CC1 [BI 1950]
OUTPUT: 58% (not active)

###

system: Voltage-dependent L-type calcium channel subunit alpha-1C (phenylalkylamine site) (Rattus norvegicus)
procedure-summary: CA+/PAASITE Eurofins-Panlabs selectivity data (BI)
conditions-used: compound concentration 1 uM, read-out: % Ctrl
recorded-endpoint: activity at 1 µM

INPUT: What value of activity at 1 µM has been recorded for this entry: C[C@H](NC(=O)c1cnc2n1[C@](C)(Cc1ccc(C#N)cc1)C(=O)N2c1cc(Cl)c(F)c(Cl)c1)C(=O)NC1(c2ccccn2)CC1
OUTPUT: 86% (not active)

###

system: Amine oxidase [flavin-containing] B (MAO-B) (Homo sapiens, UniProt P27338)
procedure-summary: MAOB Eurofins-Panlabs selectivity data (BI)
Parameters: mode of action inhibitor
conditions-used: compound concentration 10 uM, read-out: % Ctrl
recorded-endpoint: activity at 10 µM

INPUT: What value of activity at 10 µM has been recorded for this entry: C[C@H](NC(=O)c1cnc2n1[C@](C)(Cc1ccc(C#N)cc1)C(=O)N2c1cc(Cl)c(F)c(Cl)c1)C(=O)NC1(c2ccccn2)CC1 [BI 1950]
OUTPUT: 101% (not active)

###

system: Voltage-dependent L-type calcium channel subunit alpha-1C (phenylalkylamine site) (Rattus norvegicus, UniProt P22002)
Sequence (P22002 whole entry): as above
procedure-summary: CA+/PAASITE Eurofins-Panlabs selectivity data (BI)
conditions-used: compound concentration 0.03 uM, read-out: % Ctrl
recorded-endpoint: activity at 0.03 µM

INPUT: What value of activity at 0.03 µM has been recorded for this entry: C[C@H](NC(=O)c1cnc2n1[C@](C)(Cc1ccc(C#N)cc1)C(=O)N2c1cc(Cl)c(F)c(Cl)c1)C(=O)NC1(c2ccccn2)CC1 [BI 1950]
OUTPUT: 109% (not active)

###

system: Voltage-dependent L-type calcium channel subunit alpha-1C (phenylalkylamine site) (Rattus norvegicus)
procedure-summary: CA+/PAASITE Eurofins-Panlabs selectivity data (BI)
conditions-used: compound concentration 3 uM, read-out: % Ctrl
recorded-endpoint: activity at 3 µM

INPUT: What value of activity at 3 µM has been recorded for this entry: C[C@H](NC(=O)c1cnc2n1[C@](C)(Cc1ccc(C#N)cc1)C(=O)N2c1cc(Cl)c(F)c(Cl)c1)C(=O)NC1(c2ccccn2)CC1
OUTPUT: 76% (not active)

###

system: Voltage-dependent L-type calcium channel subunit alpha-1C (phenylalkylamine site) (Rattus norvegicus, UniProt P22002)
procedure-summary: CA+/PAASITE Eurofins-Panlabs selectivity data (BI)
conditions-used: compound concentration 0.1 uM, read-out: % Ctrl
recorded-endpoint: activity at 0.1 µM

INPUT: What value of activity at 0.1 µM has been recorded for this entry: C[C@H](NC(=O)c1cnc2n1[C@](C)(Cc1ccc(C#N)cc1)C(=O)N2c1cc(Cl)c(F)c(Cl)c1)C(=O)NC1(c2ccccn2)CC1 [BI 1950]
OUTPUT: 110% (not active)

###

system: Voltage-dependent L-type calcium channel subunit alpha-1C (diltiazem site) (Rattus norvegicus, UniProt P22002)
Sequence (P22002 whole entry): as above
procedure-summary: CA+/DILSI/RA Eurofins-Panlabs selectivity data (BI)
conditions-used: compound concentration 10 uM, read-out: % Ctrl
recorded-endpoint: activity at 10 µM

INPUT: What value of activity at 10 µM has been recorded for this entry: C[C@H](NC(=O)c1cnc2n1[C@](C)(Cc1ccc(C#N)cc1)C(=O)N2c1cc(Cl)c(F)c(Cl)c1)C(=O)NC1(c2ccccn2)CC1 [BI 1950]
OUTPUT: 69% (not active)

###

system: Voltage-dependent L-type calcium channel subunit alpha-1C (DHP site) (Rattus norvegicus, UniProt P22002)
procedure-summary: CA+/DHPSI/RA Eurofins-Panlabs selectivity data (BI)
conditions-used: compound concentration 0.3 uM, read-out: % Ctrl
recorded-endpoint: activity at 0.3 µM

INPUT: What value of activity at 0.3 µM has been recorded for this entry: C[C@H](NC(=O)c1cnc2n1[C@](C)(Cc1ccc(C#N)cc1)C(=O)N2c1cc(Cl)c(F)c(Cl)c1)C(=O)NC1(c2ccccn2)CC1 [BI 1950]
OUTPUT: 94% (not active)

###

system: Voltage-dependent L-type calcium channel subunit alpha-1C (DHP site) (Rattus norvegicus)
procedure-summary: CA+/DHPSI/RA Eurofins-Panlabs selectivity data (BI)
conditions-used: compound concentration 0.1 uM, read-out: % Ctrl
recorded-endpoint: activity at 0.1 µM

INPUT: What value of activity at 0.1 µM has been recorded for this entry: C[C@H](NC(=O)c1cnc2n1[C@](C)(Cc1ccc(C#N)cc1)C(=O)N2c1cc(Cl)c(F)c(Cl)c1)C(=O)NC1(c2ccccn2)CC1
OUTPUT: 98% (not active)

###

system: Voltage-dependent L-type calcium channel subunit alpha-1C (phenylalkylamine site) (Rattus norvegicus)
procedure-summary: CA+/PAASITE Eurofins-Panlabs selectivity data (BI)
conditions-used: compound concentration 10 uM, read-out: % Ctrl
recorded-endpoint: activity at 10 µM (%)
Provide only the numeric value, understood in %.

INPUT: What value of activity at 10 µM has been recorded for this entry: C[C@H](NC(=O)c1cnc2n1[C@](C)(Cc1ccc(C#N)cc1)C(=O)N2c1cc(Cl)c(F)c(Cl)c1)C(=O)NC1(c2ccccn2)CC1 [BI 1950]
OUTPUT: 49.5
